assay.target: PACAP-R3 (Homo sapiens)
Sequence (P41587 24-438): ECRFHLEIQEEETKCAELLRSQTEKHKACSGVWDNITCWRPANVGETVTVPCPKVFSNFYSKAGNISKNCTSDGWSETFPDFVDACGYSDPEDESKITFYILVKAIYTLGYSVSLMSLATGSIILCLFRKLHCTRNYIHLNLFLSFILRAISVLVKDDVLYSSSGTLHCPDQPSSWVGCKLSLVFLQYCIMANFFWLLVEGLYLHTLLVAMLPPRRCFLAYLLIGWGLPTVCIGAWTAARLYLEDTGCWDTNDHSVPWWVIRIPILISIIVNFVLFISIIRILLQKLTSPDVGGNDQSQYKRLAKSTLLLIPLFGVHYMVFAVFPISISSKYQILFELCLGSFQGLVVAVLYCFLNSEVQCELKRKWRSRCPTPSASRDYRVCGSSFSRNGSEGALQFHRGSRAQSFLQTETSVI
method: Cyclic AMP SPA on CHO cells expressing PACAP R3
Format: cell-based
Set-up: expressed in transfected cells; host or cells: CHO cells (Geneticin selection)
recorded.conditions: ratio of EC50 at R2 versus EC50 at R3
No end group written: not given here.
Task for the reader: assign each of the following sequences its reported R3 Selectivity.

Recorded R3 Selectivity, per entry:
>  <sequence.code>
HSDAVFTDNYTRLRKQLAAKKYLNDIKKQ [Peptide R3P34]

>  <assay.target>
PACAP-R3 (Homo sapiens)

>  <R3 Selectivity>
>70

$$$$
>  <sequence.code>
HSDAVFTDNYTRLRKQLAAKKYLNDIKK [Peptide R3P33]

>  <assay.target>
PACAP-R3 (Homo sapiens)

>  <R3 Selectivity>
>200

$$$$

In the following, a different sequence is considered.
Prompt line: Look at this sequence and give its reported R3 Selectivity. HSDAVFTDNYTRLRKQMARKKYLNSIQNRI [rR3P187]
Response line: >80
